Reference for the values: patent US8742106B2

molecular target: human orexin 1 receptors (Homo sapiens (Human)); assay: Calcium Accumulation in Cells (FLIPR), antagonism of orexin A; conditions: antagonism of orexin A, Cheng-Prusoff corrected; read-out: FLIPR hOx1R Ki
READOUT_NAME: pKi
Remember, pKi is on a log scale: it is -log10 of the molar concentration.

>>> df
                                   compound  readout_name  recorded_measurement
0  COc1ccc(C(C)NC(=O)COc2cc(C)c3c(C4CC4)nn(C)c3n2)cc1F (centres unmarked)           pKi                  5.58

Input: Sample Cc1ccc2c(n1)CCC2NC(=O)COc1cc(C)c2c(C3CC3)nn(C)c2n1 (centres unmarked) — what was its pKi?
Output: 6.64

Input: Quick one: Cc1cc(OCC(=O)NC(C)c2cnc3[nH]ccc3c2)nc2c1c(C1CC1)nn2C (centres unmarked)
Output: 6.18

Input: Item: COc1ccc2c(c1)CC[C@H]2NC(=O)COc1cc(C)c2c(C3CC3)nn(C)c2n1
Output: 5.75

Input: Try the compound COc1ccc2c(c1)CC[C@@H]2NC(=O)C(C)Oc1cc(C)c2c(C3CC3)nn(C)c2n1 (single isomer, unassigned)
Output: 6.46

Input: Consider next the compound Cc1ccc([C@H](C)NC(=O)COc2cc(C)c3c(-c4nccs4)nn(C)c3n2)cc1 in the same way.
Output: 8.22

Input: Now this one: Cc1ccc([C@H](C)NC(=O)COc2cc(C)c3c(-c4ncc(C)s4)nn(C)c3n2)cc1
Output: 8.22

Input: And then COc1ccc([C@H](C)NC(=O)COc2cc(C)c3c(C4CC4)nn(C)c3n2)cc1 , what is it?
Output: 6.84

----------
target: human orexin 1 receptors (Homo sapiens (Human), UniProt O43613); experiment: Calcium Accumulation in Cells (FLIPR), antagonism of orexin A; type: cell-based; settings: measured at a concentration of 10 μM of compound; read-out: FLIPR hOx1R % inhibition value
Sequence (O43613 whole entry): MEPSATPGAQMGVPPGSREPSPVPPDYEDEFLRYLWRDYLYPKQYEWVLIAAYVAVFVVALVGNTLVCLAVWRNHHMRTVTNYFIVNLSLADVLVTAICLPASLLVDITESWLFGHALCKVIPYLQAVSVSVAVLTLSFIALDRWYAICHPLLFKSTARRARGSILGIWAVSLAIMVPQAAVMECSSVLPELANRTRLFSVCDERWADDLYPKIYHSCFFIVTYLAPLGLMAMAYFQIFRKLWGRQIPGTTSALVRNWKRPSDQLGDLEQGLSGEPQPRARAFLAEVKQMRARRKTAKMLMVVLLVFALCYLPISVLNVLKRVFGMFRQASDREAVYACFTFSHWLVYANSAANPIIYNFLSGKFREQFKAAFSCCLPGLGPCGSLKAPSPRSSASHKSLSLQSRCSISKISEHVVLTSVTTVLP
READOUT_NAME: inhibition at 10 µM (%)
Provide the reading as a plain figure in %.

Below, 2 molecules whose answers are already recorded.
In [3]: df
Out[3]:
                                   molecule         readout_name  recorded_measurement
0  Cc1cccc(CNC(=O)COc2cc(C(F)(F)F)c3c(-c4ccccc4)nn(C)c3n2)c1  inhibition at 10 µM                    23
1  Cc1ccc(C(C)NC(=O)COc2cc(C(F)F)c3c(C4CC4)nn(C)c3n2)cn1 (centres unmarked)  inhibition at 10 µM                    41

Input: Please look up its inhibition at 10 µM: Cc1ccc2c(c1)C(NC(=O)COc1cc(C)c3c(C4CC4)nn(C)c3n1)CC2 (centres unmarked)
Output: 34

Input: Moving on to COc1ccc([C@H](C)NC(=O)C(C)Oc2cc(C)c3c(C4CC4)nn(C)c3n2)cc1 (single isomer, unassigned)
Output: 43

Input: Same lookup for Cc1nc(C(C)NC(=O)COc2cc(C(F)(F)F)c3c(-c4ccccc4)nn(C)c3n2)c(C)s1 (centres unmarked) , please.
Output: 37

----------
Reported pKi by item:
target: human orexin 2 receptors (Homo sapiens (Human), UniProt O43614); test: Calcium Accumulation in Cells (FLIPR), antagonism of orexin A; details: antagonism of orexin A, Cheng-Prusoff corrected; read-out: FLIPR hOx2R Ki
Sequence (O43614 whole entry): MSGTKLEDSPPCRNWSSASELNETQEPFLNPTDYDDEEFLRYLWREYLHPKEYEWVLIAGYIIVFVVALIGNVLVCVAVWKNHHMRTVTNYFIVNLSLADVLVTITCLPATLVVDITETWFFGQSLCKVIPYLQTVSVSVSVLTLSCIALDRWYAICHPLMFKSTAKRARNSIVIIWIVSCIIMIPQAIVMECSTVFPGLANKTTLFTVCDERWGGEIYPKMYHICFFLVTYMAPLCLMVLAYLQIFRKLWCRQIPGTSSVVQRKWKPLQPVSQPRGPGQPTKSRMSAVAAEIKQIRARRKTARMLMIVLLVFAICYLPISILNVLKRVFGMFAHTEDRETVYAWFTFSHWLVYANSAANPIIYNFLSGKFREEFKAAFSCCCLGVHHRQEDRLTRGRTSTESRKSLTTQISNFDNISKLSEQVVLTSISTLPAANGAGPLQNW
Notebook: values listed as pKi are -log10 of the concentration (mol/L).

Some compounds with known pKi results, for comparison:
>>> df
                                   compound  recorded_measurement
0  C[C@H](NC(=O)COc1cc(C(F)(F)F)c2c(-c3ccccc3)cn(C)c2n1)c1ccccc1                  7.23
1  Cc1ccc2c(n1)CC[C@@H]2NC(=O)COc1cc(C(F)(F)F)c2c(-c3cc(C)oc3C)nn(C)c2n1                  8.15
2  CCn1nccc1C(C)NC(=O)COc1cc(C(F)(F)F)c2c(-c3ccccc3)nn(C)c2n1 (stereo not shown)                  6.45

Then this compound:
Input: What measured pKi goes with COc1cccc(C(C)NC(=O)COc2cc(C(F)(F)F)c3c(-c4ccccc4)nn(C)c3n2)c1 (stereo not shown) ?
Output: 7.59
